MEASUREMENT_PROTOCOL: solvent given as SMILES
MEASUREMENT_CONTEXT: in CCCCCCC
QUANTITY_KIND: emission maximum (nm)
Report only the number, with the unit nm understood.

Look at this molecule and give its reported emission maximum. Nc1ccc2c(c1)Cc1ccccc1-2
344

Entry to check: CSc1ccc(/C=C/c2cnc3ccccc3n2)cc1
426

Entry to check: CN(C)c1ccc(/C=C/c2cnc3ccccc3n2)cc1
468

Entry to check: C(=C\c1ccncn1)/c1ccc(N(c2ccccc2)c2ccccc2)cc1
443

Entry to check: C(=C\c1ccncn1)/c1ccc(N2CCCCC2)cc1
435

Entry to check: C(/C=C/c1ccc(-n2c3ccccc3c3ccccc32)cc1)=C\c1ccncc1
382

Entry to check: COc1ccc(/C=C/c2cc(/C=C/c3ccc(OC)cc3)nc(/C=C/c3ccc4cc(OC)ccc4c3)n2)cc1
401

Entry to check: CN(C)c1ccc(/C=C/c2nc3ccccc3s2)cc1
446

Entry to check: C(=C\c1ccncn1)/c1ccc(-c2ccc(N(c3ccccc3)c3ccccc3)cc2)cc1
445

###

MEASUREMENT_PROTOCOL: solvent given as SMILES
MEASUREMENT_CONTEXT: in CS(C)=O
So basically: is emission maximum under 500 nm? Then met. Not under? Then not met.

Reference set (4 entries):
Bench note: check whether CCOC(=O)CCCn1c(C(=O)OC)c(C)c2c(=O)n3c(cc21)C(CC)=C(C)C3=O shows emission maximum below 500 nm
met

Entry to check: C(=C\c1ncnc2ccccc12)/c1ccc(N(c2ccccc2)c2ccccc2)cc1
not met

Entry to check: C(=C\c1ccncn1)/c1ccc(N2CCCCC2)cc1
not met

Entry to check: CCCCCCN(c1ccccc1)c1ccc2c(c1)C(CC)(CC)c1cc(/C=C/c3ccc(/C=C(\C#N)C(=O)O)s3)ccc1-2
not met

Let us examine a further case.
Bench note: check whether O=C1CC(=O)Nc2cc(Cl)ccc2N1 shows emission maximum below 500 nm
met

###

MEASUREMENT_PROTOCOL: solvent given as SMILES
MEASUREMENT_CONTEXT: in CC#N
So basically: is emission maximum under 500 nm? Then 1. Not under? Then 0.

Reference set (5 entries):
Bench note: check whether COC(=O)c1nc(-c2ccccc2)oc1C shows emission maximum below 500 nm
1

Entry to check: COc1nc(Cl)nc(Nc2ccc3c4c(cccc24)C(=O)c2ccccc2-3)n1
0

Entry to check: COc1ccc(OC)c(-c2[nH]c(=O)n3c2-c2ccccc2C3=O)c1
1

Entry to check: C(=C\c1ccncn1)/c1ccc(N(c2ccccc2)c2ccccc2)cc1
0

Entry to check: C(=C\c1ncnc2ccccc12)/c1ccc(-c2ccc(N(c3ccccc3)c3ccccc3)cc2)cc1
0

***
Bench note: check whether CC(C)(C)c1ccc(-c2cc3c4c(c2)CCc2cc(-c5ccc(C(C)(C)C)cc5)cc(c2-4)CC3)cc1 shows emission maximum below 500 nm
1

Entry to check: COc1nc(Cl)nc(Nc2ccc3c4cccc5cccc(c6cccc2c63)c54)n1
1

Entry to check: c1ccc(-c2cc(-c3ccc4ccc5cccc6ccc3c4c56)ccn2)nc1
1

Entry to check: COC1=[N+]2C(=C(c3ccc(C)cc3)c3ccc(OC)n3[B-]2(F)F)C=C1
0

Entry to check: CC1=N/C(=C\c2ccc(C#N)c(N(C)C)c2)C(=O)N1C
0

Entry to check: CC(=O)c1cc2c(cc1F)NC(C)(C)CC2=O
1

Entry to check: COc1ccc(-n2c(C)ccc2C)cc1
1

Entry to check: CCN(CC)c1ccc2cc(/C=C/C3=CC(/C=C/c4cc5ccc(N(CC)CC)cc5oc4=O)=[O+][B-](F)(F)O3)c(=O)oc2c1
0

Entry to check: C(=C\c1cc(/C=C/c2ccc(-n3c4ccccc4c4ccccc43)cc2)cc(/C=C/c2ccc(-n3c4ccccc4c4ccccc43)cc2)c1)/c1ccc(-n2c3ccccc3c3ccccc32)cc1
1

Entry to check: Cc1cc(=O)c2c(ccc3ccc(O)cc32)o1
1

Entry to check: Cc1ccc(-n2c3ccccc3c3cc(C(=C(C#N)C#N)c4ccccc4)ccc32)cc1
0

###

MEASUREMENT_PROTOCOL: solvent given as SMILES
MEASUREMENT_CONTEXT: in C1COCCO1
QUANTITY_KIND: emission maximum (nm)
Report only the number, with the unit nm understood.

Look at this molecule and give its reported emission maximum. CCNc1ccc(NCC)c2c1C(=O)c1ccccc1C2=O
684

Entry to check: CC(C)(C)c1ccc(-c2nc3c4ccc(-c5ccccc5)cc4c4cc(-c5ccccc5)ccc4c3n2-c2ccc(C(C)(C)C)cc2)cc1
389

Entry to check: CCN(CC)c1ccc2cc(/C=C/C(=O)/C=C(O)/C=C/c3cc4ccc(N(CC)CC)cc4oc3=O)c(=O)oc2c1
561

Moving on to another molecule below.
Look at this molecule and give its reported emission maximum. CC1(C)c2ccccc2N(c2ccc(-c3ccc4c(c3)c3cc(-c5ccc(N6c7ccccc7C(C)(C)c7ccccc76)cc5)ccc3c3nc(C#N)c(C#N)nc43)cc2)c2ccccc21
668.71

###

MEASUREMENT_PROTOCOL: solvent given as SMILES
MEASUREMENT_CONTEXT: in ClC=C(Cl)Cl
So basically: is emission maximum under 400 nm? Then TRUE. Not under? Then FALSE.

Bench note: check whether CC(C)(C)c1ccc(-c2nc3c4ccc(-c5cccc6ccccc56)cc4c4cc(-c5cccc6ccccc56)ccc4c3n2-c2ccc(C(C)(C)C)cc2)cc1 shows emission maximum below 400 nm
TRUE

Entry to check: c1ccc(-n2c(-c3ccc(-c4ccc(-c5ccc(-c6nc7c8ccccc8c8ccccc8c7n6-c6ccccc6)cc5)cc4)cc3)nc3ccccc32)cc1
FALSE

Let us examine a further case.
Bench note: check whether CC(C)(C)c1ccc(-c2nc3c4ccc(-c5c6ccccc6cc6ccccc56)cc4c4cc(-c5c6ccccc6cc6ccccc56)ccc4c3n2-c2ccc(C(C)(C)C)cc2)cc1 shows emission maximum below 400 nm
FALSE

###

Quick reference: emission maximum of the listed items.
MEASUREMENT_PROTOCOL: solvent given as SMILES
MEASUREMENT_CONTEXT: in CC(C)O
Report only the number, with the unit nm understood.

Some compounds with known emission maximum results, for comparison:
Look at this compound and give its reported emission maximum. COc1ccc(-c2cc(-c3ccc(OC)cc3)c3c(N)nc(N4CCCC4)c(C#N)c3n2)cc1
507

Entry to check: CCc1ccc(/C=N/c2cc(C(C)C)c(O)cc2C)cc1
418

Entry to check: N#Cc1coc2ccccc2c1=O
411

Entry to check: O=c1ccc2cc3c(cc2o1)OCC3
400

Entry to check: O=C1Nc2ccccc2/C1=C/C(=O)c1ccc(O)cc1
407

***
Look at this compound and give its reported emission maximum. CCC1=C(C)C2=C(C)c3c(C)c(-c4csc(N5CCOCC5)n4)c(C)n3[B-](F)(F)[N+]2=C1C
538

Entry to check: N#Cc1ccc(/C=C2\OC(=O)c3cc(N)ccc32)cc1
496.03

Entry to check: Cc1cc(O)c(C(C)C)cc1/N=C/c1ccc(O)cc1
412

Entry to check: N#Cc1cccc2[nH]ccc12
385

Entry to check: Cc1ccc(C2CC(c3ccc(O)cc3)=NN2c2ccc(S(N)(=O)=O)cc2)cc1 (stereo unspecified)
423

Entry to check: C[C@]12C(=O)NC(=O)N([C@H]3CC(O)[C@@H](CO)O3)[C@H]1[C@H]1Oc3cc4oc(=O)ccc4cc3[C@H]12 (stereo partly specified)
428

Entry to check: O=S(=O)([O-])c1ccc(O)c2ccccc12
360

###

MEASUREMENT_PROTOCOL: solvent given as SMILES
MEASUREMENT_CONTEXT: in C1CCCCC1
Quick reference: emission maximum of the listed items.
Report only the number, with the unit nm understood.

Look at this compound and give its reported emission maximum. c1cc2ccc3cc4cccc5ccc6cc(c1)c2c3c6c54
436

Moving on to another compound below.
Look at this compound and give its reported emission maximum. C[Si](C)(C)[Si](C)(C)c1cccc2cc3ccccc3cc12
410

###

MEASUREMENT_PROTOCOL: solvent given as SMILES
MEASUREMENT_CONTEXT: in C1CCOC1
Quick reference: emission maximum of the listed items.

Look at this molecule and give its reported emission maximum. O=P1(c2ccccc2)C(c2ccc(C3=Cc4ccccc4P3(=O)c3ccccc3)cc2)=Cc2ccccc21 (configuration not stated)
431 nm

Entry to check: Cc1ccc(-c2ccc(-c3ccc(C)cc3)c(/C(=C(/c3ccccc3)c3cc(-c4ccc(C)cc4)ccc3-c3ccc(C)cc3)c3ccccc3)c2)cc1
492 nm

Entry to check: F[Si-](F)(c1ccccc1)(c1c2ccccc2cc2ccccc12)c1c2ccccc2cc2ccccc12
395 nm

Entry to check: C(=C1c2ccccc2CCc2ccccc21)c1ccc(-c2ccc(C=C3c4ccccc4CCc4ccccc43)cc2)cc1
394 nm

Entry to check: CCCCCCN(c1ccccc1)c1ccc2c(c1)C(CC)(CC)c1cc(/C=C/c3ccc(/C=C(\C#N)C(=O)O)s3)ccc1-2
651 nm

***
Look at this molecule and give its reported emission maximum. CCn1c2ccccc2c2cc(-c3cc(-c4ccc5c(c4)c4ccccc4n5CC)ncn3)ccc21
395 nm

Entry to check: CCn1c2ccc(/C=C/c3ccc4c(c3)c3cc(-c5nc6ccccc6s5)ccc3n4CC)cc2c2cc(-c3nc4ccccc4s3)ccc21
408 nm

Entry to check: CCN1C(=O)C(C2C(=O)c3c4ccccc4cc4cc5ccccc5c2c34)SC1=S (configuration not stated)
570 nm

Entry to check: CC(C)(C)c1ccc(-c2nc3c4ccc(-c5c6ccccc6cc6ccccc56)cc4c4cc(-c5c6ccccc6cc6ccccc56)ccc4c3n2-c2ccc(C(C)(C)C)cc2)cc1
428 nm

Entry to check: N#Cc1cccc2[nH]ccc12
371 nm

Entry to check: CN(C)c1c2ccccc2cc2ccccc12
392 nm

Entry to check: CC(C)(C)c1ccc(-c2nc3c4ccc(-c5ccccc5)cc4c4cc(-c5ccccc5)ccc4c3n2-c2ccc(C(C)(C)C)cc2)cc1
389 nm

Entry to check: C(=C\c1ccncn1)/c1ccc(-c2ccc(N(c3ccccc3)c3ccccc3)cc2)cc1
525 nm

Entry to check: CN(C)c1ccc(/C=C/c2cnc3ccccc3n2)cc1
556 nm

Entry to check: COc1cc2c(cc1-c1ccc(N(C)C)cc1)Cc1c3c(c4c(c1-2)-c1cc(OC)c(-c2ccc(N(C)C)cc2)cc1C4)C(=O)N(CCC(C)C)C3=O
593 nm

Entry to check: CN(C)c1ccc(C2=Nc3scc[n+]3[B-](F)(F)O2)cc1
454 nm

Entry to check: c1ccc2nc(-n3c4ccccc4c4ccccc43)c(-n3c4ccccc4c4ccccc43)nc2c1
516.79 nm

Entry to check: O=C(/C=C/c1cn(-c2ccccc2)nc1-c1ccccc1)c1c(O)c2ccccc2oc1=O
489 nm
